target: EPH-B4 (Homo sapiens); experiment: Kinase panel (mobility shift); format: biochemical
Sequence (P54760 16-987, species assumed): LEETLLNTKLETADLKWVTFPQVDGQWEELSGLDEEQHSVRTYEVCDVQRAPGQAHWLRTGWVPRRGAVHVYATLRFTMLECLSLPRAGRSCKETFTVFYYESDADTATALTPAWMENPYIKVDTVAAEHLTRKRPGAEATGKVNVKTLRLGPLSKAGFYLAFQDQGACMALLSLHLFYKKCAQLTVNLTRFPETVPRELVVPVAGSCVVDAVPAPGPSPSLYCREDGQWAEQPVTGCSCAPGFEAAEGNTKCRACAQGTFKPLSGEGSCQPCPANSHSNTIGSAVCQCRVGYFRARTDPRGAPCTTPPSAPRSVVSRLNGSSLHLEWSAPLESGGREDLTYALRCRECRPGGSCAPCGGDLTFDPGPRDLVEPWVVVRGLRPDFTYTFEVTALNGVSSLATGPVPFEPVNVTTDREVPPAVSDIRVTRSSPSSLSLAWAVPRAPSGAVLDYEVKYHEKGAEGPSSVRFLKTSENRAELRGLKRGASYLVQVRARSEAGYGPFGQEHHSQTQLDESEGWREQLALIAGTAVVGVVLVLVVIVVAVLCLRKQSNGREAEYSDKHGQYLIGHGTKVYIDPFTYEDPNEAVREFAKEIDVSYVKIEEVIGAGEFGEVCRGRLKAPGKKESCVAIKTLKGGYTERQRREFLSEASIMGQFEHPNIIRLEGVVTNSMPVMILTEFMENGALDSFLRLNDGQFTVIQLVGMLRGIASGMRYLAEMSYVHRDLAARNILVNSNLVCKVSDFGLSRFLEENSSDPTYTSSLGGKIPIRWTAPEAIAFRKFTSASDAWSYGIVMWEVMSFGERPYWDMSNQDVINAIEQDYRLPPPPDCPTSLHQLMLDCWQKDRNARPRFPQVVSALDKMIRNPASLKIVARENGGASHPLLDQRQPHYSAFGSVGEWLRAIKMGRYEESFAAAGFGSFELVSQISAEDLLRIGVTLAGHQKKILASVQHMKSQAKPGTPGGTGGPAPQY
Test Readout: inhibition at 5 µM

line_notation=CNC(=O)c1cc(Oc2ccc(NC(=O)c3nc(COC)oc3-c3ccc(F)cc3)cc2F)ccn1 result="80 to 89%"
line_notation=CSc1nc(C(=O)Nc2ccc(Oc3ccnc(C(=O)NCCN(C)C)c3)c(F)c2)c(-c2ccc(F)cc2)o1 result="< 50%"
line_notation=CSc1nc(C(=O)Nc2ccc(Oc3ccnc(C(=O)NC4COC4)c3)c(F)c2)c(-c2ccc(F)cc2)o1 result="< 50%"
line_notation=CSc1nc(C(=O)Nc2ccc(Oc3ccnc(C(=O)NC4CNC4)c3)c(F)c2)c(-c2ccc(F)cc2)o1 result="< 50%"
line_notation=CSc1nc(C(=O)Nc2ccc(Oc3ccnc(C(=O)NCC(F)(F)F)c3)c(F)c2)c(-c2ccc(F)cc2)o1 result="< 50%"

Dear colleague, could you send me inhibition at 5 µM for each of the items below? Thanks.
1. CNC(=O)c1cc(Oc2ccc(NC(=O)c3nc(NC)sc3-c3ccc(F)cc3C)cc2F)ccn1
2. [2H]C([2H])([2H])NC(=O)c1cc(Oc2ccc(NC(=O)c3nc(SC)oc3-c3ccc(F)s3)cc2F)ccn1

[reply]
1: 50 to 79%; 2: < 50%

----------
Target: AXL (Homo sapiens, UniProt P30530)
Sequence (P30530 26-894): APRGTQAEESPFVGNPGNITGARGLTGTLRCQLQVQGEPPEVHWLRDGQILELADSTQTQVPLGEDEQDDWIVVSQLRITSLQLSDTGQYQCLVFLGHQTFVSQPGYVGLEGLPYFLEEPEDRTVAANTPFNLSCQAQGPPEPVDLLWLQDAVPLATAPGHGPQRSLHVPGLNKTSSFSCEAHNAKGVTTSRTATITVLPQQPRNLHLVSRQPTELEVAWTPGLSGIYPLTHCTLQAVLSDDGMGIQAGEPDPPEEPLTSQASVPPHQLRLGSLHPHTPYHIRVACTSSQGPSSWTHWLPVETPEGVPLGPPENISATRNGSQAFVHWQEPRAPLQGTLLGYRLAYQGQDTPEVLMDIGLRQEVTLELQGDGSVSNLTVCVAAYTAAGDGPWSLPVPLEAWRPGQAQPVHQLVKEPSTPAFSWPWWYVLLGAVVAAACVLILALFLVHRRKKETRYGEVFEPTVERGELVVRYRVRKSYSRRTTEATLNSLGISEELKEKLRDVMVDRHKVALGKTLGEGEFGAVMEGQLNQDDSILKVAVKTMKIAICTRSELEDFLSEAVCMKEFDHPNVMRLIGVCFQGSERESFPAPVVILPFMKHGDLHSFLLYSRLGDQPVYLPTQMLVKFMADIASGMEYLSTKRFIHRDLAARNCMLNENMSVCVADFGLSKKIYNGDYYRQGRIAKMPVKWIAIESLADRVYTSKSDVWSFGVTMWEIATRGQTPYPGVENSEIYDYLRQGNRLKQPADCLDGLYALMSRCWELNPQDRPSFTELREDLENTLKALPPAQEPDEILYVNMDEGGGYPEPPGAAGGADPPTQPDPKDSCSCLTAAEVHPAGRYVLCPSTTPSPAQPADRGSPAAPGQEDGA
Experiment: Kinase panel (mobility shift)
Assay type: biochemical
Test Readout: inhibition at 5 µM

Worked set:
line_notation=COc1nc(C(=O)Nc2ccc(Oc3ccnc(C(=O)NCC(F)(F)F)c3)c(F)c2)c(-c2ccc(F)cc2)o1 test_readout="inhibition at 5 µM" result="< 50%"
line_notation=CNC(=O)c1cc(Oc2ccc(NC(=O)c3nc(SC)oc3-c3ccc(F)s3)cc2F)ccn1 test_readout="inhibition at 5 µM" result="< 50%"
line_notation=CNC(=O)c1cc(Oc2ccc(NC(=O)c3nc(SC)oc3-c3ccc(OC)cc3)cc2)ccn1 test_readout="inhibition at 5 µM" result="< 50%"
line_notation=CSc1nc(C(=O)Nc2ccc(Oc3ccnc(-c4cnn(C)c4)c3)c(F)c2)c(-c2ccc(F)cc2)o1 test_readout="inhibition at 5 µM" result="90 to 94%"
line_notation=CSc1nc(C(=O)Nc2ccc(Oc3ccnc(C(=O)NC4CCN(C)CC4)c3)c(F)c2)c(-c2ccc(F)cc2)o1 test_readout="inhibition at 5 µM" result="< 50%"

Dear colleague, could you send me inhibition at 5 µM for each of the items below? Thanks.
1. CNC(=O)c1cc(Oc2ccc(NC(=O)c3nc(NC)sc3-c3ccc(F)cc3C)cc2F)ccn1
2. CNC(=O)c1cc(Oc2ccc(NC(=O)c3nc(OC)oc3-c3ccc(F)s3)cc2F)ccn1

[reply]
["50 to 79%", "< 50%"]

----------
Target: EPH-B4 (Homo sapiens)
Assay: Kinase panel (mobility shift)
Type: biochemical
Description: The disclosed compounds were tested for activity against a panel of 299 kinases. The target enzyme was incubated with fluorescently labeled substrate and test compounds in a standardized reaction mixture in 384 well plates. Upon termination of the reaction, samples were introduced onto microfluidic chips. […] Enzyme activity was measured by direct comparison of the fluorescence in the product and substrate peaks. […]
Consider the following compounds; for each one, report its inhibition at 5 µM.

Worked set:
line_notation=CNC(=O)c1cc(Oc2ccc(NC(=O)c3nc(OC)oc3-c3ccc(F)c(F)c3)cc2F)ccn1 result="< 50%"
line_notation=CNC(=O)c1cc(Oc2ccc(NC(=O)c3nc(OC)oc3-c3ccc(F)cc3)cc2F)ccn1 result="50 to 79%"
line_notation=CNC(=O)c1cc(Oc2ccc(NC(=O)c3nc(S(C)(=O)=O)sc3-c3ccc(F)cc3)cc2F)ccn1 result="50 to 79%"

Dear colleague, could you send me inhibition at 5 µM for each of the items below? Thanks.
1. CNC(=O)c1cc(Oc2ccc(NC(=O)c3nc(NC)oc3-c3ccc(F)cc3)cc2F)ccn1
2. CSc1nc(C(=O)Nc2ccc(Oc3ccnc(C(=O)NC4COC4)c3)c(F)c2)c(-c2ccc(F)s2)o1
3. CNC(=O)c1cc(Oc2ccc(NC(=O)c3nc(OC)oc3-c3ccc(F)s3)cc2F)ccn1
4. CNC(=O)c1cc(Oc2ccc(NC(=O)c3nc(SC)oc3-c3ccc(F)cc3Cl)cc2)ccn1
5. CSc1nc(C(=O)Nc2ccc(Oc3ccnc(N)c3Cl)c(F)c2)c(-c2ccc(F)cc2)o1
6. CNC(=O)c1cc(Oc2ccc(NC(=O)c3nc(NC)oc3-c3ccc(F)s3)cc2F)ccn1

[reply]
1. 50 to 79%
2. < 50%
3. < 50%
4. < 50%
5. < 50%
6. < 50%

----------
Target: TAOK3 (Homo sapiens)
Sequence (Q9H2K8 1-898): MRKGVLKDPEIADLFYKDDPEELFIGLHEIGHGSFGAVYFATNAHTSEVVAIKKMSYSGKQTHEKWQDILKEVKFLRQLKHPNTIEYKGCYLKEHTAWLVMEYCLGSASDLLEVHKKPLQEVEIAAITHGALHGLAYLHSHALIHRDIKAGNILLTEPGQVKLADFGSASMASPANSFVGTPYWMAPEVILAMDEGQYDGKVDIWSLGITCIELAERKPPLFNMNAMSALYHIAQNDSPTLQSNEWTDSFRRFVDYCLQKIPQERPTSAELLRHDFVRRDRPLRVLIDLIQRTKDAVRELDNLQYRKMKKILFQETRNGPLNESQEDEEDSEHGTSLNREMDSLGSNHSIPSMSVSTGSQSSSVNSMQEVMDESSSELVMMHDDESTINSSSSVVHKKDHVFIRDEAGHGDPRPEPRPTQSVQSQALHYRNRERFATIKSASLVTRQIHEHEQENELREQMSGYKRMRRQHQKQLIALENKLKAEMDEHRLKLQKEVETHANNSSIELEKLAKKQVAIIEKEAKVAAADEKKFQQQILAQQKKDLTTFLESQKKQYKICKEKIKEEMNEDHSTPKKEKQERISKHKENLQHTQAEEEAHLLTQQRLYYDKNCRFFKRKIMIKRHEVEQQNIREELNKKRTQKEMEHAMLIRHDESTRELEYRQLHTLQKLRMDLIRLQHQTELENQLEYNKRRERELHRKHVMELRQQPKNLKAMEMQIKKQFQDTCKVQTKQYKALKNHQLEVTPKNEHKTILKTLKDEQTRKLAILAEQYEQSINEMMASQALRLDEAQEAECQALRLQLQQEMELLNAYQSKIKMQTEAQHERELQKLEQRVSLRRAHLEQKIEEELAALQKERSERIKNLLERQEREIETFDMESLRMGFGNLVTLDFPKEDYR
Test: Kinase panel (mobility shift)
Assay type: biochemical
Test Readout: inhibition at 5 µM

Worked set:
line_notation=COc1nc(C(=O)Nc2ccc(Oc3ccnc(C(=O)NC4COC4)c3)c(F)c2)c(-c2ccc(F)cc2)o1 result="< 50%"
line_notation=CSc1nc(C(=O)Nc2ccc(Oc3ccnc(C(=O)NC4CCN(C)CC4)c3)c(F)c2)c(-c2ccc(F)cc2)o1 result="< 50%"
line_notation=[2H]C([2H])([2H])NC(=O)c1cc(Oc2ccc(NC(=O)c3nc(SC)oc3-c3ccc(F)c(F)c3)cc2F)ccn1 result="50 to 79%"
line_notation=CSc1nc(C(=O)Nc2ccc(Oc3ccnc(N)c3Cl)c(F)c2)c(-c2ccc(F)cc2)o1 result="< 50%"
line_notation=CNC(=O)c1cc(Oc2ccc(NC(=O)c3nc(NC)sc3-c3ccc(F)cc3F)cc2F)ccn1 result="50 to 79%"

Dear colleague, could you send me inhibition at 5 µM for each of the items below? Thanks.
1. CSc1nc(C(=O)Nc2ccc(Oc3ccnc(C(=O)NCCN(C)C)c3)c(F)c2)c(-c2ccc(F)cc2)o1
2. CSc1nc(C(=O)Nc2ccc(Oc3ccnc(-c4cnn(C)c4)c3)c(F)c2)c(-c2ccc(F)cc2)o1

[reply]
["50 to 79%", "< 50%"]
